Origin of values: ChEMBL document CHEMBL3045479

- Tested on: THP-1
- Assay Protocol: Growth inhibition of Homo sapiens (human) THP1 cells at 10 uM after 48 hr by SRB assay
- Assay type: functional
- Test Parameters: THP-1, 48 h, read-out: GI
Endpoint Name: inhibition of growth at 10 µM (%)
One number for each entry, in %.

Example cases with answers are listed next.
Prompt line: Query for THP-1: what inhibition of growth at 10 µM does the record show for "C[C@H]1[C@H](C)CC[C@]2(C(=O)OCCCCCCCCCBr)CC[C@]3(C)C(=CC[C@@H]4[C@@]5(C)CC[C@H](O)C(C)(C)[C@@H]5CC[C@]43C)[C@H]12" ?
Response line: 0

Prompt line: Here is the next compound: O=c1[nH]cc(F)c(=O)[nH]1 [FLUOROURACIL]
Response line: 69

Prompt line: Here is the next compound: "C[C@H]1[C@H](C)CC[C@]2(C(=O)OCCCCBr)CC[C@]3(C)C(=CC[C@@H]4[C@@]5(C)CC[C@H](O)C(C)(C)[C@@H]5CC[C@]43C)[C@H]12"
Response line: 7

Report inhibition of growth at 10 µM for every entry below.
1. C[C@H]1[C@H](C)CC[C@]2(C(=O)O)CC[C@]3(C)C(=CC[C@@H]4[C@@]5(C)CC[C@H](O)C(C)(C)[C@@H]5CC[C@]43C)[C@H]12 [URSOLIC ACID]
2. C[C@H]1[C@H](C)CC[C@]2(C(=O)OCCCCCCBr)CC[C@]3(C)C(=CC[C@@H]4[C@@]5(C)CC[C@H](O)C(C)(C)[C@@H]5CC[C@]43C)[C@H]12
3. C[C@H]1[C@H](C)CC[C@]2(C(=O)OCCCCCCCCBr)CC[C@]3(C)C(=CC[C@@H]4[C@@]5(C)CC[C@H](O)C(C)(C)[C@@H]5CC[C@]43C)[C@H]12

Response line:
1: 52; 2: 3; 3: 4

----------
- Tested on: SW-620
- Assay Protocol: Growth inhibition of Homo sapiens (human) SW620 cells at 10 uM after 48 hr by SRB assay
- Assay type: functional
- Test Parameters: SW-620, 48 h, read-out: GI
Endpoint Name: inhibition of growth at 10 µM (%)
Answers are plain numbers, in %.

Example cases with answers are listed next.
Prompt line: Any idea what its inhibition of growth at 10 µM is? The molecule is COC(=O)[C@]12CC[C@@H](C)[C@H](C)[C@H]1C1=CC[C@@H]3[C@@]4(C)CC[C@H](O)C(C)(C)[C@@H]4CC[C@@]3(C)[C@]1(C)CC2 [METHYL URSOLATE]
Response line: 0

Prompt line: Here is the next molecule: CC(C)=CCOC(=O)[C@]12CCC(C)(C)C[C@H]1C1=CC[C@@H]3[C@@]4(C)CC[C@H](O)C(C)(C)[C@@H]4CC[C@@]3(C)[C@]1(C)CC2 [3BETA-HYDROXY-OLEAN-12-EN-28-PRENYLATE]
Response line: 13

Prompt line: Here is the next molecule: "COC(=O)COC(=O)[C@]12CC[C@@H](C)[C@H](C)[C@H]1C1=CC[C@@H]3[C@@]4(C)CC[C@H](O)C(C)(C)[C@@H]4CC[C@@]3(C)[C@]1(C)CC2"
Response line: 0

# context switch: different molecule, same inhibition of growth at 10 µM
Prompt line: Any idea what its inhibition of growth at 10 µM is? The molecule is COC(=O)[C@]12CCC(C)(C)C[C@H]1C1=CC[C@@H]3[C@@]4(C)CC[C@H](O)C(C)(C)[C@@H]4CC[C@@]3(C)[C@]1(C)CC2 [METHYL OLEANOLATE]
Response line: 8
